- PROTOCOL DETAILS: Selectivity index, ratio of IC50 for cytotoxicity against human HFF-1 cells to IC50 for cytotoxicity against human MCF7 cells measured after 48 hrs by MTT assay
- Assay type: toxicity, cell-based
- MEASUREMENT CONTEXT: HFF-1 cells and MCF7 cells, read-out: Selectivity Index
QUANTITY: selectivity ratio at 48 h
Write the value as a bare number.

Q: Which selectivity ratio at 48 h value is on record for `COc1ccc(S(=O)(=O)Nc2ccc(/N=N/c3ccccc3)cc2)c(OC)c1` ?
Result: 3.19

---

- PROTOCOL DETAILS: Selectivity index, ratio of IC50 for cytotoxicity against human HFF-1 cells to IC50 for cytotoxicity against human MCF7 cells measured after 72 hrs by MTT assay
- Type: toxicity, cell-based
- MEASUREMENT CONTEXT: HFF-1 cells and MCF7 cells, read-out: Selectivity Index
QUANTITY: selectivity ratio at 72 h
Would you mind answering with just the numeric figure?

Q: Endpoint output: selectivity ratio at 72 h of `COc1ccc(S(=O)(=O)Nc2ccc(/N=N/c3ccccc3)cc2)c(OC)c1` . Value?
Result: 3.74

---

selectivity ratio at 24 h reference
- PROTOCOL DETAILS: Selectivity index, ratio of IC50 for cytotoxicity against human HFF-1 cells to IC50 for cytotoxicity against human MCF7 cells measured after 24 hrs by MTT assay
- Format: toxicity, cell-based
- MEASUREMENT CONTEXT: HFF-1 cells and MCF7 cells, read-out: Selectivity Index

N#Cc1ccc(S(=O)(=O)Nc2ccc(/N=N/c3ccccc3)cc2)cc1 ... > 1.6

Q: I'd like to know its selectivity ratio at 24 h. The compound in question is `COc1ccc(S(=O)(=O)Nc2ccc(/N=N/c3ccccc3)cc2)c(OC)c1`
Result: 2.12

Q: What does the data say about its selectivity ratio at 24 h? Entry: `COc1ccc(S(=O)(=O)N(Cc2nc3ccccc3[nH]2)c2ccc(/N=N/c3ccccc3)cc2)c(OC)c1`
Result: > 2.25

The values you see were collected from ChEMBL document CHEMBL4828731.
